# Tested on: Trypanosoma brucei rhodesiense
# protocol: Antiparasitic activity against Trypanosoma brucei rhodesiense STIB900 infected in Swiss-Webster mouse assessed as cure rate at 50 mg/kg, bid administered via oral gavage from day 2 to 5 post infection measured after 60 days by microscopic method relative to control
# Type: functional
reported.property: Activity

>>> print(df.to_string())
                            compound_smiles  reported_property    result
0  Cl.NCCN(C(=O)c1ccccc1C(F)(F)F)c1ccc(OCc2ccc(Cl)cc2)cc1           Activity       33%
1  Cc1cc(C)cc(COc2ccc(N(CCN)C(=O)c3cccnc3Cl)cc2)c1.Cl.Cl           Activity  67 - 80%
2  CC(C)c1ccc(COc2ccc(N(CCN)C(=O)c3ccc(Cl)cc3Cl)cc2)cc1.Cl           Activity  67 - 80%
3  Cl.NCCN(C(=O)c1ccc(F)cc1C(F)(F)F)c1ccc(OCc2ccc(Cl)cc2)cc1           Activity  67 - 80%
4  CC(C)c1ccc(COc2ccc(N(CCN)C(=O)c3cccnc3C(F)(F)F)cc2)cc1.Cl           Activity  67 - 80%
